Data origin, for the record: patent US20250281611A1

Some binders, each annotated with its measured MFI Bil03 AF647.
- STUDY TARGET: T1, CD19 (UniProt P15391 20-556, limits assumed)
- T1 construct: whole, on cells; also called CD19 on JeKo-1
- T1 sequence (looked up): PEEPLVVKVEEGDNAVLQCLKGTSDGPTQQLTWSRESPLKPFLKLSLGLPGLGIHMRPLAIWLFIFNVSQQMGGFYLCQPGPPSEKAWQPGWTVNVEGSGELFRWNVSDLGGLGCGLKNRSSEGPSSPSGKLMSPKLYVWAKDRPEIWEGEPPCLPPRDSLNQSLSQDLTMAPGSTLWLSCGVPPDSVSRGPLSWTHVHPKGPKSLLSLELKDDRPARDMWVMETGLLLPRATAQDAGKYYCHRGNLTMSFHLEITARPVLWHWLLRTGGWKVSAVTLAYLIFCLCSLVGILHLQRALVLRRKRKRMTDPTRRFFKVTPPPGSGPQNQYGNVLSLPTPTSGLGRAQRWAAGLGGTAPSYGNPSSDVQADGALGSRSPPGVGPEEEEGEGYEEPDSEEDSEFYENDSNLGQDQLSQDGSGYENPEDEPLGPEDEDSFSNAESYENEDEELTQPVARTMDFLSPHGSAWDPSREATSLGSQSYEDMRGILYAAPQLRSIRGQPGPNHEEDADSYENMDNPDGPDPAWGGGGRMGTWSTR
- MEASUREMENT PROTOCOL: flow cytometry, JeKo-1 cells, bridge at saturating conc., BIL03s-AF647 detection
- Experimental: JeKo-1 cells were incubated with different CD19 BRiDGE variants at saturating concentrations. […] The MFI intensity correlates with the number of secondary bound antibodies bound to the CD19 BRiDGE variants that are only detected if they are bound to the JeKo-1 cells. MFI: median fluorescence intensity. BLitz: Bio-Layer interferometry (BLI) technology using HIS-tag identification tips. […] The higher the MFIR, the stronger the binding.
Form rule: numeric answer, no unit written next to it.

Consider the worked cases shown below.
CD19 BRIDGE variant B25 (Fab, V domains shown) VH: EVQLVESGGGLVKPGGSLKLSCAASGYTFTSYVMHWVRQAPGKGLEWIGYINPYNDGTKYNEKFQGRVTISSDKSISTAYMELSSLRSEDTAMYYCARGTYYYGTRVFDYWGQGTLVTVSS VL: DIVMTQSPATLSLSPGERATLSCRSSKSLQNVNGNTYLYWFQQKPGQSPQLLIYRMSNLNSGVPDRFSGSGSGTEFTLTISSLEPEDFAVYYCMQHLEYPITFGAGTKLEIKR
5
CD19 BRIDGE variant B13 (Fab, V domains shown) VH: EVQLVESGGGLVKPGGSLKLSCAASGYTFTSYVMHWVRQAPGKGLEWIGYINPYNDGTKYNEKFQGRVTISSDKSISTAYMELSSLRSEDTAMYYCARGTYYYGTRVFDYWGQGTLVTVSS VL: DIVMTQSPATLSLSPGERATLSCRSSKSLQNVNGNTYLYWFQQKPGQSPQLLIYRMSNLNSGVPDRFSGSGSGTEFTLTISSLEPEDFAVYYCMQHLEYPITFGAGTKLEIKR
5.28
CD19 BRIDGE variant B26 (Fab, V domains shown) VH: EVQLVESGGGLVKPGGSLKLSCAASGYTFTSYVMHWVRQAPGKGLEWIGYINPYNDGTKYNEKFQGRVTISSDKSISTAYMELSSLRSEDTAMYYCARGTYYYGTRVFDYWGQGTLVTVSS VL: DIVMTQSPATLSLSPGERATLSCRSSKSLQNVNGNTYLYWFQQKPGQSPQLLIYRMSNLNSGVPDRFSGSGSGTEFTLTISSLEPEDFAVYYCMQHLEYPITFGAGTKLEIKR
5.53

Tell me its MFI Bil03 AF647 given CD19 BRIDGE variant B9 (Fab, V domains shown) VH: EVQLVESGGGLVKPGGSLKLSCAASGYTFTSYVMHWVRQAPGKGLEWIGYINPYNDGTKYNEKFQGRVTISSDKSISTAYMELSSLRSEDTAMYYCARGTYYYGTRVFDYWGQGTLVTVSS VL: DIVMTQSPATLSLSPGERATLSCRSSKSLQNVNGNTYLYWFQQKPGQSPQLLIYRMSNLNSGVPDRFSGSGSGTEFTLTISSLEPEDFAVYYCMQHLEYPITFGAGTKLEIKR as the entry. 4.82

Tell me its MFI Bil03 AF647 given CD19 BRIDGE variant B3 (Fab, V domains shown) VH: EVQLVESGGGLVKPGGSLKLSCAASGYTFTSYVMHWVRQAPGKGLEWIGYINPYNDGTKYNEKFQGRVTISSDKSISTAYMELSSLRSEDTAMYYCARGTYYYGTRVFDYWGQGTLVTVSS VL: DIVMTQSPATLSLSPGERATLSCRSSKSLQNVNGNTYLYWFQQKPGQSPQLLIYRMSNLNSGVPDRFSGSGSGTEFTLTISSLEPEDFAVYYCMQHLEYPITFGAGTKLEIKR as the entry. 5.43
